# growth inhibition annotations
Assay: NCI Yeast Anticancer Drug Screen. Data for the mec2-1 strain (AID 157)
Conditions: S. cerevisiae mec2-1 strain, at 50.0 µM, active compounds read high
Experimental: Growth inhibition of yeast strains with defined genetic alterations is measured as a screen for potential anti-cancer activity. Selected strains with alterations in DNA damage repair or cell cycle control were exposed to compounds and growth inhibition was measured relative to vehicle treated controls. The strain used in this assay is mec2-1
Compounds without any hit were thinned out: in the full panel of roughly 79,000, 15% have a hit. The source made the active and inactive calls. No stated cut-off is given here; in the data, active means growth inhibition above about 70%; inactive means the rest.

>>> experimental_result("CCCCNCCCNCCCNC(=O)c1csc(-c2csc(CCNC(=O)C(NC(=O)C(C)C(O)C(C)NC(=O)C(NC(=O)c3nc(C(CC(N)=O)NCC(N)C(N)=O)nc(N)c3C)C(OC3OC(CO)C(O)C(O)C3OC3OC(CO)C(O)C(OC(N)=O)C3O)c3cnc[nH]3)C(C)O)n2)n1 (centres undefined)")
"93.8% (active)"
>>> experimental_result("CC(NNC(=S)N1CCCC1)c1ccc2ccccc2n1 (centres undefined)")
"98.2% (active)"
>>> experimental_result("Cc1cc(N=Nc2ccccc2)ccc1O")
"99.5% (active)"

From here, focus on the item given below.
Query: Tell me growth inhibition reported for Cc1c2ccccc2c(C)c2c1cc(F)c1ccccc12
Reply: 97.3% (active)

---

experiment: NCI Yeast Anticancer Drug Screen. Data for the mec2-1 strain (AID 157); conditions: S. cerevisiae mec2-1 strain, at 5.0 µM (retest, dose inferred, filed as 0.5), active compounds read high
About 79,000 compounds went through this panel and 15% of them were active in at least one assay; those are over-represented in the sample as a whole.
READOUT_TYPE: growth inhibition (%)
# number only, unit % dropped from output

>>> experimental_result("CCCCCCCCCC1OCC(C)O1 (stereo not drawn)")
3
>>> experimental_result("CN(C)CC(CN(C)C)C(=O)C1CCCCC1")
2
>>> experimental_result("c1ccc(N/N=C2/CCCC3/C(=N\\Nc4ccccc4)CCCC23)cc1 (stereo not drawn)")
-5
>>> experimental_result("O=C1CSC(=S)N1Cc1ccncc1")
-14
>>> experimental_result("CCO/C=C1/N=C(c2cc(Cl)cc([N+](=O)[O-])c2)OC1=O")
-2
>>> experimental_result("CC(=O)N(C)c1ccc2c(c1)Cc1ccccc1-2")
1
>>> experimental_result("C=C1C(=O)OC(C)(C)C1c1ccc(Cl)c(Cl)c1 (stereo not drawn)")
35
>>> experimental_result("CN(C)C(=O)c1cc(Br)cc(-c2ccccc2)c1O")
0
>>> experimental_result("COc1ccc(C(C)(C)c2cc3c(cc2OCCO)OCO3)cc1")
1
>>> experimental_result("CN(C)c1nc(N(C)C)sc(=O)n1")
-4

Query: Recall and state the measured growth inhibition for C=COCCN1CCN(CCCN2c3ccccc3Sc3ccc(C(F)(F)F)cc32)CC1 .
Reply: -4

Query: Item COc1cnc2cc3c4c(cccc4c2c1)NC3=O : provide growth inhibition
Reply: 51

Query: Give recorded growth inhibition. COc1ccc(OC)c(/C=C/NC=O)c1
Reply: -11

---

test: NCI Yeast Anticancer Drug Screen. Data for the mlh1 rad18 strain (AID 175); conditions: S. cerevisiae mlh1 rad18 strain growth inhibition; at 50.0 µM (retest, dose inferred, filed as 5.0); active compounds read high
The panel holds about 79,000 compounds, 15% with a hit somewhere; the sample as a whole holds those more often.
Class fulfilled: growth inhibition at least 50%. Class not fulfilled: growth inhibition below 50%.

Here are 4 compounds together with their reported answers.
>>> classification("O=C1C2C3C=CC(C2C(=O)N1CN1CCOCC1)C1C2C(=O)N(CN4CCOCC4)C(=O)C2C31 (stereo unspecified)")
"not fulfilled"
>>> classification("CCOC(=O)OCCSCCOC(=O)OCC")
"not fulfilled"
>>> classification("Cc1ccc([Si](O)(c2ccc(C)cc2)c2ccc(C)cc2)cc1")
"fulfilled"
>>> classification("CCCCCCCCCc1cc(=O)[nH]c(=S)[nH]1")
"fulfilled"

Query: Decide: growth inhibition of C/C(=N\NC(=S)Nc1ccc(S(N)(=O)=O)cc1)c1ccccn1 >= 50%?
Reply: fulfilled

Query: Please check the record COc1ccc(-n2c3c(c4c(N)ncnc42)CCCC3)cc1 and state if its growth inhibition is at or above 50%.
Reply: not fulfilled

---

assay: NCI Yeast Anticancer Drug Screen. Data for the rad50 strain (AID 155);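 further: 0% = growth of vehicle-only cultures of the same strain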; settings: S. cerevisiae rad50 strain growth inhibition; at 50.0 µM (retest, dose inferred, filed as 5.0)
Compounds without any hit were thinned out: in the full panel of roughly 79,000, 15% have a hit. Calls of active or inactive are those of the source. Cut-off read from the data, not from the text of the source: active = growth inhibition above about 70%; inactive = the rest. Where a SMILES comes first, the peptide text is derived from it. [ ]: non-standard residue; d: D form. Nva = CCC[CH](N)C(=O)O
The reply should name one outcome from active, inactive

Query: Name the outcome recorded for CC1CCC(C(C)C2C(O)CC3C4CCC5CC(O)CCC5(C)C4CCC32C)NC1 (stereo not given) in the assay.
Reply: active

Query: // outcome(item) with item = COc1cc(C2CC(=O)c3ccccc3O2)ccc1O (stereo not given)
Reply: active

Query: Field: outcome | Entry: CCCC(N)C(=O)NC(C(=O)O)C(C)C (stereo not given) (H-[Nva]-Val-OH; configuration not given here)
Reply: inactive

Query: recorded result category for COc1ccc(CCNC(=S)/N=C\C(C(=O)c2ccccc2)=C(\O)c2ccccc2)cc1OC in this test
Reply: active

Query: For this compound, state the assay outcome: CCCCCCCCCc1c(O)c(O)c(CCCCCCCCC)c(CCCCCCCCC)c1CCCCCCCCC
Reply: inactive

Query: # lookup: test call for COC(=O)c1nc(N)nc(C(=O)OC)c1C(=O)c1ccccc1
Reply: inactive

Query: Each compound tested received a call. Report the one for O=C1c2cccc(O)c2C(=O)c2c(O)cc(CO)cc21 .
Reply: active

Query: What outcome does the record of this test show for CC(=O)N1OC2(C)c3ccccc3C1(C)c1ccccc12 ?
Reply: active

Query: Recorded test outcome, item O=C1OC(c2ccccc2)=N/C1=C\c1ccc(Oc2ccc(Cl)c(Cl)c2)cc1
Reply: inactive

Query: What did the test return for O=C1CCC(c2ccccc2)=NN1c1nc2ccccc2s1 ?
Reply: active

---

experiment: NCI Yeast Anticancer Drug Screen. Data for the sgs1 mgt1 strain (AID 161);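 further: 0% = growth of cultures given vehicle only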; details: S. cerevisiae sgs1 mgt1 strain, at 50.0 µM, active compounds read high
About 79,000 compounds went through this panel and 15% of them were active in at least one assay; those are over-represented in the sample as a whole.
READOUT_TYPE: growth inhibition (%)
Respond with the bare value in %.

Query: Read the entry CCSC(=O)/C=C1\CN(C(=O)OC(C)(C)C)C1C(=O)OC(C)(C)C (configuration not stated) and write its reported growth inhibition.
Reply: 56

---

experiment: NCI Yeast Anticancer Drug Screen. Data for the sgs1 mgt1 strain (AID 161);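 further: 0% = growth of cultures given vehicle only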; conditions: S. cerevisiae sgs1 mgt1 strain, at 5.0 µM (retest, dose inferred, filed as 0.5)
Compounds without any hit were thinned out: in the full panel of roughly 79,000, 15% have a hit. The source made the active and inactive calls. Rule as the data show it: active = growth inhibition above about 70%; inactive = the rest.
Respond with a class label; see True for active, False for inactive

# example entries with known answers
>>> classification("COC(=O)c1cc(=O)n(-c2ccccc2C(F)(F)F)c(SC)n1")
"False"
>>> classification("O=C(N/C(=C\\c1ccccc1)C(=O)N1CCN(c2ccccc2)CC1)c1ccccc1")
"False"
>>> classification("O=[N+]([O-])c1ccc(CSSCc2ccc([N+](=O)[O-])cc2)cc1")
"False"
>>> classification("COc1ccc(S)cc1")
"False"
>>> classification("CCCCCCCCCCCCNCc1ccc(O)c(OC)c1")
"True"
>>> classification("CN(C)CC1CCc2ccc3ccccc3c2C1=O (stereo not given)")
"False"
>>> classification("O=C(Nc1ccc(Cl)c(Cl)c1)Nc1cc(Cl)ccc1Oc1ccc(Cl)cc1S(=O)(=O)O")
"False"
>>> classification("CN1/C(=C/C=C/C(I)=C/C=C/C2=[N+](C)c3ccccc3C2(C)C)C(C)(C)c2ccccc21")
"False"

Query: # lookup: test call for COc1ccc(C=C(C(=O)c2ccccc2)C(=O)c2ccccc2)cc1
Reply: False

Query: Name the outcome recorded for CCOC(=O)c1cc(NC(=O)c2cc(NC(=O)c3cc(NC(=O)c4c(-c5ccccc5)noc4C)cn3C)cn2C)cn1C in the assay.
Reply: False

---

test: NCI Yeast Anticancer Drug Screen. Data for the bub3 strain (AID 167); details: S. cerevisiae bub3 mutant strain, at 50.0 µM, active compounds read high
Compounds without any hit were thinned out: in the full panel of roughly 79,000, 15% have a hit. Active and inactive are the calls of the source. Cut-off read from the data, not from the text of the source: active = growth inhibition above about 70%; inactive = the rest.
READOUT_TYPE: growth inhibition

Would you please look over these solved cases?
>>> experimental_result("Cc1cc(Cl)ccc1NC(=O)CC1SC(=NC(=O)c2ccccc2Cl)NC1=O (stereo unspecified)")
"91.5% (active)"
>>> experimental_result("OC(CC(CC(O)(C(F)(F)F)C(F)(F)F)=NN=C(CC(O)(C(F)(F)F)C(F)(F)F)CC(O)(C(F)(F)F)C(F)(F)F)(C(F)(F)F)C(F)(F)F")
"82.7% (active)"
>>> experimental_result("Cc1ccc(S(=O)(=O)NCCCSCCO)cc1")
"74.2% (active)"
>>> experimental_result("Cc1ccc(Cc2n[nH]c(=O)[nH]2)cc1")
"-26.3% (inactive)"

Query: Provide only the value of recorded growth inhibition for CCCN(CCC)CC(O)c1ccc2ccc3ccc(Cl)cc3c2c1 (stereo unspecified)
Reply: 99.5% (active)

Query: Give the value of growth inhibition reported for the following: O=c1[nH]c2c([N+](=O)[O-])cc(Cl)cc2nc1/C=C(\O)c1cccc2ccccc12
Reply: 71.5% (active)
